# assay_name: absorption spectrum, light emission spectrum, molecular extinction coefficient and quantum efficiency in solvents
# Assay type: physicochemical
# measurement_setup: solvent EtOH
Listed below: λem values for each entry.
property_measured: λem (nm)

CC1(C)C2=C3C=C(CC(=O)[O-])C(=O)OC3CCN2c2ccc(S(=O)(=O)[O-])cc21.[Na+].[Na+] (stereo not shown): 483
CC1(C)C2=C3C=C(C(=O)CCCC(=O)[O-])C(=O)OC3CCN2c2ccc3cc(S(=O)(=O)[O-])ccc3c21.[Na+].[Na+] (stereo not shown): 516
COC(=O)C1=CC2=C3N(CCC2OC1=O)c1cc2c(cc1C3(C)C)-c1ccccc1C2(C)C (stereo not shown): 519
CCOC(=O)CCCC(=O)C1=CC2=C3N(CCC2OC1=O)c1ccc2ccccc2c1C3(C)C (stereo not shown): 516
CC1(C)C2=C3C=C(C(=O)O)C(=O)OC3CCN2c2cc3c(cc21)-c1ccccc1C3(C)C (stereo not shown): 525
CC1(C)C2=C3C=C(C(=O)[O-])C(=O)OC3CCN2c2ccccc21.[Na+] (stereo not shown): 485
CC1(C)C2=C3C=C(CC(=O)O)C(=O)OC3CCN2c2ccccc21 (stereo not shown): 485

* * *

# assay_name: absorption spectrum, light emission spectrum, molecular extinction coefficient and quantum efficiency in solvents
# Format: physicochemical
# measurement_setup: solvent PBS
Entries and their ε (molecular extinction coefficient)
property_measured: ε (molecular extinction coefficient)

CCOC(=O)CCCC(=O)C1=CC2=C3N(CCC2OC1=O)c1ccc2ccccc2c1C3(C)C (centres unmarked): 29,000 Lmol^−1cm^−1
CC1(C)C2=C3C=C(CC(=O)O)C(=O)OC3CCN2c2ccccc21 (centres unmarked): 17,000 Lmol^−1cm^−1
CC1(C)C2=C3C=C(CC(=O)[O-])C(=O)OC3CCN2c2ccc(S(=O)(=O)[O-])cc21.[Na+].[Na+] (centres unmarked): 27,000 Lmol^−1cm^−1
CC1(C)C2=C3C=CC(=O)OC3CCN2c2ccc(S(=O)(=O)[O-])cc21.[Na+] (centres unmarked): 28,000 Lmol^−1cm^−1
CC1(C)C2=C3C=C(C(=O)O)C(=O)OC3CCN2c2cc3c(cc21)-c1ccccc1C3(C)C (centres unmarked): 46,000 Lmol^−1cm^−1
CC1(C)C2=C3C=C(C(=O)[O-])C(=O)OC3CCN2c2ccc(S(=O)(=O)[O-])cc21.[Na+].[Na+] (centres unmarked): 44,000 Lmol^−1cm^−1
CC1(C)C2=C3C=C(C(=O)[O-])C(=O)OC3CCN2c2ccccc21.[Na+] (centres unmarked): 49,000 Lmol^−1cm^−1
CC1(C)C2=C3C=C(C(=O)CCCC(=O)[O-])C(=O)OC3CCN2c2ccc3cc(S(=O)(=O)[O-])ccc3c21.[Na+].[Na+] (centres unmarked): 51,000 Lmol^−1cm^−1

* * *

# assay_name: absorption spectrum, light emission spectrum, molecular extinction coefficient and quantum efficiency in solvents
# Format: physicochemical
# measurement_setup: solvent H2O
Please respond with criterion met when measured λem is strictly beneath 500 nm, and with criterion not met in all other cases.

CC1(C)C2=C3C=C(C(=O)O)C(=O)OC3CCN2c2cc3c(cc21)-c1ccccc1C3(C)C (stereo not drawn): criterion not met
COC(=O)C1=CC2=C3N(CCC2OC1=O)c1cc2c(cc1C3(C)C)-c1ccccc1C2(C)C (stereo not drawn): criterion not met
CC1(C)C2=C3C=C(C(=O)[O-])C(=O)OC3CCN2c2ccccc21.[Na+] (stereo not drawn): criterion met
CCOC(=O)CCCC(=O)C1=CC2=C3N(CCC2OC1=O)c1ccc2ccccc2c1C3(C)C (stereo not drawn): criterion not met
CC1(C)C2=C3C=C(C(=O)CCCC(=O)[O-])C(=O)OC3CCN2c2ccc3cc(S(=O)(=O)[O-])ccc3c21.[Na+].[Na+] (stereo not drawn): criterion not met

* * *

# assay_name: absorption spectrum, light emission spectrum, molecular extinction coefficient and quantum efficiency in solvents
# Assay type: physicochemical
# measurement_setup: solvent DMSO
property_measured: ε (molecular extinction coefficient)

COC(=O)C1=CC2=C3N(CCC2OC1=O)c1ccccc1C3(C)C (stereo not drawn) [Compound 1]: 63,000 Lmol^−1cm^−1
CC1(C)C2=C3C=C(C(=O)O)C(=O)OC3CCN2c2cc3c(cc21)-c1ccccc1C3(C)C (stereo not drawn) [Compound 61]: 47,000 Lmol^−1cm^−1
CC1(C)C2=C3C=C(C(=O)[O-])C(=O)OC3CCN2c2ccccc21.[Na+] (stereo not drawn) [Compound 5]: 49,000 Lmol^−1cm^−1
CC1(C)C2=C3C=C(C(=O)[O-])C(=O)OC3CCN2c2ccc(S(=O)(=O)[O-])cc21.[Na+].[Na+] (stereo not drawn) [Compound 2]: 30,000 Lmol^−1cm^−1
COC(=O)C1=CC2=C3N(CCC2OC1=O)c1ccc2ccccc2c1C3(C)C (stereo not drawn) [Compound 6]: 53,000 Lmol^−1cm^−1
CC1(C)C2=C3C=C(CC(=O)O)C(=O)OC3CCN2c2ccccc21 (stereo not drawn) [Compound 63]: 15,000 Lmol^−1cm^−1
COC(=O)C1=CC2=C3N(CCC2OC1=O)c1cc2c(cc1C3(C)C)-c1ccccc1C2(C)C (stereo not drawn) [Compound 60]: 42,000 Lmol^−1cm^−1
CC1(C)C2=C3C=C(C(=O)CCCC(=O)[O-])C(=O)OC3CCN2c2ccc3cc(S(=O)(=O)[O-])ccc3c21.[Na+].[Na+] (stereo not drawn) [Compound 16]: 47,000 Lmol^−1cm^−1
CC1(C)C2=C3C=CC(=O)OC3CCN2c2ccc(S(=O)(=O)[O-])cc21.[Na+] (stereo not drawn) [Compound 3]: 27,000 Lmol^−1cm^−1
CCOC(=O)CCCC(=O)C1=CC2=C3N(CCC2OC1=O)c1ccc2ccccc2c1C3(C)C (stereo not drawn) [Compound 62]: 46,000 Lmol^−1cm^−1
CC(=O)C1=CC2=C3N(CCC2OC1=O)c1ccc2ccccc2c1C3(C)C (stereo not drawn) [Compound 9]: 47,000 Lmol^−1cm^−1
CC1(C)C2=C3C=C(CC(=O)[O-])C(=O)OC3CCN2c2ccc(S(=O)(=O)[O-])cc21.[Na+].[Na+] (stereo not drawn) [Compound 64]: 26,000 Lmol^−1cm^−1

* * *

# assay_name: absorption spectrum, light emission spectrum, molecular extinction coefficient and quantum efficiency in solvents
# Format: physicochemical
# measurement_setup: solvent DMSO
Classify as follows. Reported λem greater than or equal to 500 nm: y. Reported λem below: n.

CC(=O)C1=CC2=C3N(CCC2OC1=O)c1ccc2ccccc2c1C3(C)C (stereo not drawn): y
CC1(C)C2=C3C=C(CC(=O)[O-])C(=O)OC3CCN2c2ccc(S(=O)(=O)[O-])cc21.[Na+].[Na+] (stereo not drawn): n
CCOC(=O)CCCC(=O)C1=CC2=C3N(CCC2OC1=O)c1ccc2ccccc2c1C3(C)C (stereo not drawn): y
CC1(C)C2=C3C=C(C(=O)CCCC(=O)[O-])C(=O)OC3CCN2c2ccc3cc(S(=O)(=O)[O-])ccc3c21.[Na+].[Na+] (stereo not drawn): y
CC1(C)C2=C3C=CC(=O)OC3CCN2c2ccc(S(=O)(=O)[O-])cc21.[Na+] (stereo not drawn): n
COC(=O)C1=CC2=C3N(CCC2OC1=O)c1ccccc1C3(C)C (stereo not drawn): n
CC1(C)C2=C3C=C(C(=O)O)C(=O)OC3CCN2c2cc3c(cc21)-c1ccccc1C3(C)C (stereo not drawn): y
CC1(C)C2=C3C=C(CC(=O)O)C(=O)OC3CCN2c2ccccc21 (stereo not drawn): n

* * *

# assay_name: absorption spectrum, light emission spectrum, molecular extinction coefficient and quantum efficiency in solvents
# Format: physicochemical
# measurement_setup: solvent DMSO
property_measured: λex (nm)

CC1(C)C2=C3C=C(C(=O)O)C(=O)OC3CCN2c2cc3c(cc21)-c1ccccc1C3(C)C (stereo not drawn): 480
CC1(C)C2=C3C=C(C(=O)CCCC(=O)[O-])C(=O)OC3CCN2c2ccc3cc(S(=O)(=O)[O-])ccc3c21.[Na+].[Na+] (stereo not drawn): 494
CC1(C)C2=C3C=C(CC(=O)O)C(=O)OC3CCN2c2ccccc21 (stereo not drawn): 416
COC(=O)C1=CC2=C3N(CCC2OC1=O)c1ccc2ccccc2c1C3(C)C (stereo not drawn): 474
CC1(C)C2=C3C=C(C(=O)[O-])C(=O)OC3CCN2c2ccccc21.[Na+] (stereo not drawn): 466
CC1(C)C2=C3C=C(C(=O)[O-])C(=O)OC3CCN2c2ccc(S(=O)(=O)[O-])cc21.[Na+].[Na+] (stereo not drawn): 468
COC(=O)C1=CC2=C3N(CCC2OC1=O)c1cc2c(cc1C3(C)C)-c1ccccc1C2(C)C (stereo not drawn): 476
CCOC(=O)CCCC(=O)C1=CC2=C3N(CCC2OC1=O)c1ccc2ccccc2c1C3(C)C (stereo not drawn): 492
CC1(C)C2=C3C=CC(=O)OC3CCN2c2ccc(S(=O)(=O)[O-])cc21.[Na+] (stereo not drawn): 416
COC(=O)C1=CC2=C3N(CCC2OC1=O)c1ccccc1C3(C)C (stereo not drawn): 456
CC1(C)C2=C3C=C(CC(=O)[O-])C(=O)OC3CCN2c2ccc(S(=O)(=O)[O-])cc21.[Na+].[Na+] (stereo not drawn): 412
CC(=O)C1=CC2=C3N(CCC2OC1=O)c1ccc2ccccc2c1C3(C)C (stereo not drawn): 492
